Assay: Toxicity on red corpuscles (lysis), human
Type: cell-based
Details: human, red corpuscles, 37° C., 1 hour 30, read-out: LD 50 (dose which leads to lysis in 50% of the erythrocytes)
endpoint: HC50 at 1.5 h
Don't forget the unit after the number, please.

For record CC1OC[C@@H](O)[C@H]([C@H](O)C(=O)CN[C@@H]2[C@H](O)[C@H](O[C@H]3/C=C/C=C/C=C/C=C/C=C/C=C/C=C/[C@H](C)[C@@H](O)[C@@H](C)[C@H](C)OC(=O)C[C@H](O)C[C@H](O)CC[C@@H](O)[C@H](O)C[C@H](O)C[C@]4(O)C[C@H](O)[C@@H](C(=O)O)[C@H](C3)O4)O[C@H](C)[C@H]2O)O1 (stereo partly shown) the listed HC50 at 1.5 h is 100 µM

----------
Experiment: Toxicity on red corpuscles (lysis), mice
Type: cell-based
Conditions: mouse, red blood cells, 37° C., 1 hour 30, read-out: LD 50 (dose which leads to lysis in 50% of the erythrocytes)
endpoint: HC50 at 1.5 h (µM)
Give bare numbers, in µM.

HC50 at 1.5 h reading for C[C@@H]1[C@H](O)[C@@H](C)/C=C/C=C/C=C/C=C/C=C/C=C/C=C/[C@H](O[C@@H]2O[C@H](C)[C@@H](O)[C@H](NCC3(O)O[C@H](C(N)=O)[C@@H](O)[C@@H]3O)[C@@H]2O)C[C@@H]2O[C@](O)(C[C@@H](O)C[C@@H](O)[C@H](O)CC[C@@H](O)C[C@@H](O)CC(=O)O[C@H]1C)C[C@H](O)[C@H]2C(=O)O (stereo partly shown) [AmB 12 F] : 20

----------
Assay: Toxicity on nucleated cells, DAUDI human lymphoma B
Assay type: cell-based
Conditions: human, daudi lymphoma b cells, 1 hour 30, trypan blue, read-out: LD 50 (concentration leading to a mortality of 50%)
Give CC50 at 1.5 h for every item shown.

>  <compound>
C[C@@H]1[C@H](O)[C@@H](C)/C=C/C=C/C=C/C=C/C=C/C=C/C=C/[C@H](O[C@@H]2O[C@H](C)[C@@H](O)[C@H](NCC(=O)[C@@H](O)[C@@H]3OC(c4ccccc4)OC[C@H]3O)[C@@H]2O)C[C@@H]2O[C@](O)(C[C@@H](O)C[C@@H](O)[C@H](O)CC[C@@H](O)C[C@@H](O)CC(=O)O[C@H]1C)C[C@H](O)[C@H]2C(=O)O (some centres unmarked)

>  <result>
> 1000 µM

$$$$

Lab book: CC50 at 1.5 h of CC1OC[C@@H](O)[C@H]([C@H](O)C(=O)CN[C@@H]2[C@H](O)[C@H](O[C@H]3/C=C/C=C/C=C/C=C/C=C/C=C/C=C/[C@H](C)[C@@H](O)[C@@H](C)[C@H](C)OC(=O)C[C@H](O)C[C@H](O)CC[C@@H](O)[C@H](O)C[C@H](O)C[C@]4(O)C[C@H](O)[C@@H](C(=O)O)[C@H](C3)O4)O[C@H](C)[C@H]2O)O1 (some centres unmarked) noted as > 1000 µM

----------
Tested on: X 63 (mice lymphoma B)
Assay: Toxicity on nucleated cells, X 63 mice lymphoma B
Type: cell-based
Details: 1 hour 30, trypan blue, 90 min, read-out: LD 50 (concentration leading to a mortality of 50%)
Task for the reader: assign each of the following compounds its reported CC50.

Your task in this section: give CC50 for each listed record.
1. C[C@@H]1[C@H](O)[C@@H](C)/C=C/C=C/C=C/C=C/C=C/C=C/C=C/[C@H](O[C@@H]2O[C@H](C)[C@@H](O)[C@H](NCC(=O)[C@@H](O)[C@@H]3OC(c4ccccc4)OC[C@H]3O)[C@@H]2O)C[C@@H]2O[C@](O)(C[C@@H](O)C[C@@H](O)[C@H](O)CC[C@@H](O)C[C@@H](O)CC(=O)O[C@H]1C)C[C@H](O)[C@H]2C(=O)O (some centres unmarked) [AmB 20 F]
2. C[C@@H]1[C@H](O)[C@@H](C)/C=C/C=C/C=C/C=C/C=C/C=C/C=C/[C@H](O[C@@H]2O[C@H](C)[C@@H](O)[C@H](NCC3(O)O[C@H](C(=O)O)[C@@H](O)[C@@H]3O)[C@@H]2O)C[C@@H]2O[C@](O)(C[C@@H](O)C[C@@H](O)[C@H](O)CC[C@@H](O)C[C@@H](O)CC(=O)O[C@H]1C)C[C@H](O)[C@H]2C(=O)O (stereo partly drawn) [AmB 17 F, 1-amino-1-deoxy-D-arabinoglucuronyl-AmB]

1: > 1000 µM; 2: > 1000 µM

These measurements were taken from patent US5314999A.
